Test system: SAUR 9218
Test summary: MIC Test Method, standard agar dilution
Assay type: cell-based
Experimental parameters: agar dilution, Mueller Hinton agar, incubated overnight at 35° C.; lowest concentration that inhibits visible growth; read-out: SAUR 9218 MIC
Method: The in vitro MiCs of test compounds were determined by a standard agar dilution method. A stock drug solution of each analog was prepared in the preferred solvent, usually DMSO:H2O (1:3). Serial 2-fold dilutions of each sample are made using 1.0 ml aliquots of sterile distil]ed water. […] Following incubation the Minimum Inhibitory Concentration (MIC μg/ml), the lowest concentration of drug that inhibits visible growth of the organism, was read and recorded.
Property measured: MIC (mg/L)

P: CC1(C)OCC(CCc2cc(C(=O)Nc3ccc(Br)cc3C(=O)O)no2)O1 (centres unmarked)
Q: COc1ccc2oc(C(=O)Nc3ccc(C#N)cc3C(=O)O)cc2c1
Input pair: P , Q . Output: entry with lower MIC. # reply format: chosen label Q
(Q: 2 mg/L, P: 4 mg/L)

---

Test system: SAUR 9218
Test summary: MIC Test Method, standard agar dilution
Type: cell-based
Experimental parameters: agar dilution, Mueller Hinton agar, incubated overnight at 35° C.; lowest concentration that inhibits visible growth; read-out: SAUR 9218 MIC
Property measured: MIC (µg/mL)

Compound	Unit symbol	MIC
N#Cc1ccc(NC(=O)c2cc(CNCc3ccncc3)on2)c(C(=O)O)c1.O=C(O)C(F)(F)F	µg/mL	8
CN(C)c1ccc(CNS(=O)(=O)c2cc(C(=O)Nc3ccc(Br)cc3C(=O)O)cs2)cc1	µg/mL	64
O=C(Nc1ccc(Br)cc1C(=O)O)c1ncc(-c2ccc3c(c2)OCO3)o1	µg/mL	2
COCCn1c(C(=O)Nc2ccc(Cl)cc2C(=O)O)cc2ccccc21	µg/mL	16
Cn1c(C(=O)Nc2ccc(C#N)cc2C(=O)O)cc2c(Br)ccc(N)c21	µg/mL	1
N#Cc1ccc(NC(=O)c2cnc(SCc3ccccc3)s2)c(C(=O)O)c1	µg/mL	1
Cn1c(C(=O)Nc2ccc(C#N)cc2C(=O)O)cc2cccc(O/C=C3/COC(C)(C)O3)c21	µg/mL	0.25
CCOc1ccccc1-c1cc(C(=O)Nc2ccc(C#N)cc2C(=O)O)no1	µg/mL	0.125

P: N#Cc1ccc(NC(=O)c2cc(CCl)on2)c(C(=O)O)c1
Q: O=C(Nc1ccc(Br)cc1C(=O)O)c1ccc2c(c1)OCO2
R: Cc1sc(C(=O)Nc2ccc(C#N)cc2C(=O)O)cc1S(=O)(=O)N1CCC(C)CC1
S: Cc1ccc(CC(=O)Nc2cccc3cc(C(=O)Nc4ccc(C#N)cc4C(=O)O)[nH]c23)cc1
Hey, quick one: sort these by MIC, low to high? Answer format: the labels, in the requested order. S, P, R, Q
(S: 0.5 µg/mL, P: 4 µg/mL, R: 8 µg/mL, Q: 16 µg/mL)

---

System: SAUR 9218
Test summary: MIC Test Method, standard agar dilution
Format: cell-based
Experimental parameters: agar dilution, Mueller Hinton agar, incubated overnight at 35° C.; lowest concentration that inhibits visible growth; read-out: SAUR 9218 MIC
Property measured: MIC (µg/mL)

// known answers, use as guide
Molecule	Unit symbol	Observed value
N#Cc1ccc(NC(=O)c2ccc(SC3CCCCC3)nc2)c(C(=O)O)c1	µg/mL	0.5
Cn1c(C(=O)Nc2ccc(C#N)cc2C(=O)O)cc2cccc(NC(=O)c3cccc(S(=O)(=O)N4CCOCC4)c3)c21	µg/mL	2
O=C(Nc1ccc(Br)cc1C(=O)O)c1cc(SCc2ccccc2)ccn1	µg/mL	2
O=C(O)c1cc(Br)ccc1NC(=O)c1noc2ccccc12	µg/mL	0.25
Cn1c(C(=O)Nc2ccc(C#N)cc2C(=O)O)cc2ccc(OCc3ccccc3)cc21	µg/mL	0.125
N#Cc1ccc(NC(=O)c2ccc(SCc3ccncc3)nn2)c(C(=O)O)c1	µg/mL	0.25

I: Cc1noc(C)c1S(=O)(=O)Nc1ccc2cc(C(=O)Nc3ccc(C#N)cc3C(=O)O)n(C)c2c1
II: CC12CCC(C(=O)Nc3cccc4cc(C(=O)Nc5ccc(C#N)cc5C(=O)O)[nH]c34)(OC1=O)C2(C)C (stereo not drawn)
Hi team, can someone confirm which has the larger MIC: I or II ? Thanks. Answer with the label corresponding to your selection. II

Measured values drawn from patent US20040110802A1 for this set.
